Exercise: state measured IC50 for each of the binders provided.
- SYSTEM NAME: T1, human ST2L extracellular domain with C-terminal His6 tag (human, UniProt Q01638 19-328)
- T1 construct: also called huST2L-ECD; ST2L-ECD
- T1 sequence: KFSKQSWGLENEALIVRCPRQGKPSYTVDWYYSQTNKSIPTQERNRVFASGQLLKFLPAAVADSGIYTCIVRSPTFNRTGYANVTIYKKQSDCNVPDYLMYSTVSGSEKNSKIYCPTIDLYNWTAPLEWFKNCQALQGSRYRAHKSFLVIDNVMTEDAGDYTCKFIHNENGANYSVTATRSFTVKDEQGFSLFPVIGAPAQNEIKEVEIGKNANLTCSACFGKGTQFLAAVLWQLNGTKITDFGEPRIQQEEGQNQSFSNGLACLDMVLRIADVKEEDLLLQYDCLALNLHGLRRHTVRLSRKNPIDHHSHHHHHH
- PROCEDURE DETAILS: RLB ELISA: biotinylated IL-33 on coated huST2L-ECD, antibody titrated
The reply should consist of the numeric value with the unit placed after it.

Dear reader, for each entry below, please note its IC50.
1. STLM227 (antibody, V domains shown, VH STLH201 + VL STLL277) VH: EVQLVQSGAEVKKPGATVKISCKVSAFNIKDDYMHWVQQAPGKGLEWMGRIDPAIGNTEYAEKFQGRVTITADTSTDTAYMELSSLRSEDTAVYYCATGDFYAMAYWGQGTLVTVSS VL: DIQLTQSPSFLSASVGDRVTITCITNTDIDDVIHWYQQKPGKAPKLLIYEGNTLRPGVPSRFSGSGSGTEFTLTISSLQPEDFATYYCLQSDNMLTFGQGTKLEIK
2. STLM218 (antibody, V domains shown, frameworks VH3-23 / Vk-L6) VH: EVQLLESGGGLVQPGGSLRLSCAASGFTFSVDSMFWVRQAPGKGLEWVSSIEGNGGATYYADSVKGRFTISRDNSKNTLYLQMNSLRAEDTAVYYCARDPWSTEGSFFVLDYWGQGTLVTVSS VL: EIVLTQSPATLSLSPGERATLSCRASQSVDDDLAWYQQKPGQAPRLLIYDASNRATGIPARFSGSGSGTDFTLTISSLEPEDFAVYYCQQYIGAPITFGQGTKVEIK
3. STLM222 (antibody, V domains shown, frameworks VH3-23 / Vk-L6) VH: EVQLLESGGGLVQPGGSLRLSCAASGFTFSIYSMFWVRQAPGKGLEWVSDIGGEGGGTSYADSVKGRFTISRDNSKNTLYLQMNSLRAEDTAVYYCARDPWSTEGSFFVLDYWGQGTLVTVSS VL: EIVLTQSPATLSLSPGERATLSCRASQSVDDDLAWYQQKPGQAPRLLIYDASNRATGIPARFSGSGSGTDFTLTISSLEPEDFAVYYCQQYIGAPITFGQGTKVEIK
4. STLM214 (antibody, V domains shown, frameworks VH3-23 / Vk-L6) VH: EVQLLESGGGLVQPGGSLRLSCAASGFTFSSYDMFWVRQAPGKGLEWVSDIKGEGGRTAYADSVKGRFTISRDNSKNTLYLQMNSLRAEDTAVYYCARDPWSTEGSFFVLDYWGQGTLVTVSS VL: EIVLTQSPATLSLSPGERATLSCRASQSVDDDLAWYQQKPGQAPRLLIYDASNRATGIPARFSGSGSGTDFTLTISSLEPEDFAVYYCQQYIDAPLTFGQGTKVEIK
5. STLM220 (antibody, V domains shown, frameworks VH3-23 / Vk-L6) VH: EVQLLESGGGLVQPGGSLRLSCAASGFTFSFYDMFWVRQAPGKGLEWVSDIRGEGGGTAYADSVKGRFTISRDNSKNTLYLQMNSLRAEDTAVYYCARDPWSTEGSFFVLDYWGQGTLVTVSS VL: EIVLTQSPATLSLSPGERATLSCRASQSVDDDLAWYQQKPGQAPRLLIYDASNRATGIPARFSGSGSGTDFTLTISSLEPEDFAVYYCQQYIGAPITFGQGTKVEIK
6. STLM217 (antibody, V domains shown, frameworks VH3-23 / Vk-L6) VH: EVQLLESGGGLVQPGGSLRLSCAASGFTFSVYDMFWVRQAPGKGLEWVSDIKGEGGETSYADSVKGRFTISRDNSKNTLYLQMNSLRAEDTAVYYCARDPWSTEGSFFVLDYWGQGTLVTVSS VL: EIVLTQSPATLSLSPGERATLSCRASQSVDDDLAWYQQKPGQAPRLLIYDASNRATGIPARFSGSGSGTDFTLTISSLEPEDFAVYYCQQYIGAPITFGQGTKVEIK
7. STLM232 (antibody, V domains shown, VH STLH201 + VL STLL272) VH: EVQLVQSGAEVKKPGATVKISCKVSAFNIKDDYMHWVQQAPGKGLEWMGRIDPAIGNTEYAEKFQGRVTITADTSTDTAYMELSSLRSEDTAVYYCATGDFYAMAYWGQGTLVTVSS VL: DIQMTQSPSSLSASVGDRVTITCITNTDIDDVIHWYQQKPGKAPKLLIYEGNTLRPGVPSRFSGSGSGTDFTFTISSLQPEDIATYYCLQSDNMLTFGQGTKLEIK

Output:
1: 0.17 µg/mL; 2: 0.42 µg/mL; 3: 0.25 µg/mL; 4: 0.28 µg/mL; 5: 0.39 µg/mL; 6: 0.49 µg/mL; 7: 0.31 µg/mL

Just for reference, patent US20170066831A1 is where these values come from.
